Measured values drawn from paper PMC5943153 for this set.

Target or test system: T1, HP0221-T25 (NifU) (Helicobacter pylori strain 26695, UniProt O25009 2-326)
T1 sequence (looked up): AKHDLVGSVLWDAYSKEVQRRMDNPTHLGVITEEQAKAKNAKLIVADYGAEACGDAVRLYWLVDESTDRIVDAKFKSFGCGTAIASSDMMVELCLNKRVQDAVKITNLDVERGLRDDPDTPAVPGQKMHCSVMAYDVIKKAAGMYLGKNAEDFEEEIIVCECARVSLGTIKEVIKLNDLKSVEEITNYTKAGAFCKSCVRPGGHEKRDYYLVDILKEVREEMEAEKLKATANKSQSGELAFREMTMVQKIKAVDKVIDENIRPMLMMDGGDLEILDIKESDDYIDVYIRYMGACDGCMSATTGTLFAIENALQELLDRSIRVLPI
Experiment: two-hybrid
Measurement kind: growth OD595 in M63-maltose (OD595)
Numbers only here, please. The scale is OD595.

Memo: T18-HP0625 (natural protein, Helicobacter pylori strain 26695, UniProt O25342 2-359, looked up) LENRVKTKQIFIGGVAIGGDAPISTQSMTFSKTADIESTKNQIDRLKLAGADLVRVAVSNEKDALALKELKKVSPLPLIADIHFHYKFALIAAQSVDAIRINPGNIGSKEKIKAVVDACKEKNIPIRIGVNAGSLEKQFDQKYGPTPKGMVESALYNAKLLEDLDFTNFKISLKASDVIRTIEAYRMLRPLVIYPFHLGVTEAGNLFSSSIKSAMALGGLLMEGIGDTMRVSITGELENEIKVARAILRHSGRLKEGINWISCPTCGRIEANLVDMAIKVEKRLSHIKTPLDISVMGCVVNALGEAKHADMAIAFGNRSGLIIKEGKVIHKLAEKDLFETFVIEVENLAKEREKSLKD , reported growth OD595 in M63-maltose: 0.37
